- EXPERIMENTAL_SYSTEM: CK2A2 (Homo sapiens)
- Construct: purchased Eurofins
- Sequence (P19784 whole entry): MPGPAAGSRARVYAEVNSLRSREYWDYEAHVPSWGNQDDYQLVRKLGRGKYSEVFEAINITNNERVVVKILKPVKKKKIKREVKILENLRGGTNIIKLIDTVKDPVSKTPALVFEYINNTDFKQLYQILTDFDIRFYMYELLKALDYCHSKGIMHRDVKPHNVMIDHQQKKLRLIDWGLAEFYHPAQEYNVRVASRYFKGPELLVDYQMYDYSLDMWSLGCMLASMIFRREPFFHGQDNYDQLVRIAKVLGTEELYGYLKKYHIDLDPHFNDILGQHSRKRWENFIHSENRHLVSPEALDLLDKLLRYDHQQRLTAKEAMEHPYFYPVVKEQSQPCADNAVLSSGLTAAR
- ASSAY_METHOD_TEXT: Radiometric kinase assay (Eurofins), CK2A2
- Format: biochemical
- TEST_SETTINGS: Table 5; read-out: CK2A2 RAD IC50
- Text: • ^1Radiometric kinase assay from Eurofins. Performed in astrocytes with a Promega Lumit IL-6 kit.
METRIC_NAME: IC50 (nM)
API: value field is a number in nM; no unit string.

>>> df
                                   compound  number
0  COc1cc2oc(-c3ccc(O)c(OC)n3)cc(=O)c2cc1Br [Compound 1058A]    1180
1  COc1cc(-c2cc(=O)c3cc(Br)c(OC)c(Br)c3o2)ncc1O [Compound 1040A]      29
2  COc1ccc2c(=O)cc(-c3ccc(O)c(C4CC4)c3)oc2c1Br [Compound 1142A]    2230
3  O=c1cc(-c2ccc(O)c(O)c2)oc2c(Br)cc(Br)cc12 [Compound 1004A]     803
4  COc1nc(-c2cc(=O)c3cc(Br)c(OC)c(Br)c3o2)ccc1O [Compound 1041A]    1740

COc1ccc2c(=O)cc(-c3ccc(O)c(OC)n3)oc2c1Br [Compound 1059A] has a reported IC50 of 251

Measured IC50 of COc1cc(-c2cc(=O)c3cc(Br)ccc3o2)ncc1O [Compound 1065A] : 364

According to the records, this compound O=c1cc(-c2ccc(O)c(C3CC3)c2)oc2c(Br)cccc12 [Compound 1141A] displays IC50 of 4250

The reported IC50 of the compound COc1nc(-c2cc(=O)c3cc(Br)ccc3o2)ccc1O [Compound 1064A] was 167

Reported IC50 for COc1cc(-c2cc(=O)c3cc(Br)c(OC)cc3o2)ncc1O [Compound 1063B] was 445

* * *

- EXPERIMENTAL_SYSTEM: CK2A1 (Homo sapiens, UniProt P68400)
- Construct: purchased Eurofins
- Sequence (P68400 whole entry): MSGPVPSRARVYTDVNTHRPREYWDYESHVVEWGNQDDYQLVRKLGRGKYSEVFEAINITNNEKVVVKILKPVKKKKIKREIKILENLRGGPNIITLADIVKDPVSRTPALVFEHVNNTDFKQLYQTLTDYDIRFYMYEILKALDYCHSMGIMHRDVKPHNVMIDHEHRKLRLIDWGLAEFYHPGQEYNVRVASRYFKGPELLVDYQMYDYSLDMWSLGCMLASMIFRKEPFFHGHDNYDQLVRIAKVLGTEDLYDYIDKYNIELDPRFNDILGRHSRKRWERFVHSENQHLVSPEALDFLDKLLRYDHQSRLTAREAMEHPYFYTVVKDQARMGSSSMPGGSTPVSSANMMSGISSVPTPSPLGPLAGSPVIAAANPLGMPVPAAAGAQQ
- ASSAY_METHOD_TEXT: Radiometric kinase assay (Eurofins), CK2A1
- Assay type: biochemical
- TEST_SETTINGS: Table 3; halogenated flavones; read-out: CK2A1 RAD IC50
METRIC_NAME: pIC50
Schema: pIC50 number; meaning minus log10 of the concentration expressed in molar units.

Recorded results for 3 compounds are shown here.
                                   compound  number
0  COc1c(Br)cc2c(=O)cc(-c3ccc(O)c(Cl)c3)oc2c1Br [JKT.748A]    7.62
1  COc1c(Br)cc2c(=O)cc(-c3ccc(O)c(Br)c3)oc2c1Br [JKT.745A]    7.70
2  COc1c(Br)cc2c(=O)cc(-c3ccc(O)c(C(F)(F)F)c3)oc2c1Br [JKT.750A]    6.24

// pIC50 value for O=c1cc(-c2ccc(O)c(Br)c2)oc2ccc(Cl)cc12 [JKT.778A] : 6.94

Just so you know, measured pIC50 for COc1ccc2c(=O)cc(-c3ccc(O)c(Br)c3)oc2c1Br [JKT.780A] came out at 8.05

Documented pIC50 of O=c1cc(-c2ccc(O)c(Cl)c2)oc2c(Br)cc(Br)cc12 [JKT.721A] : 8.00

Consider COc1ccc2c(=O)cc(-c3ccc(O)c(C(F)(F)F)c3)oc2c1Br [JKT.786A] . Its measured pIC50 is 5.61

* * *

- EXPERIMENTAL_SYSTEM: CK2A1 (Homo sapiens, UniProt P68400)
- Construct: purchased Eurofins
- ASSAY_METHOD_TEXT: Radiometric kinase assay (Eurofins), CK2A1
- Assay type: biochemical
- TEST_SETTINGS: Table 2; read-out: CK2A1 RAD IC50
- Description: FIGS. 4A-4F characterize flavones for in vitro and in-cell CK2 inhibition. […] Representative of two independent experiments. […] Nonlinear fit was used to calculate IC50. […] Nonlinear fit was used to calculate IC50. […] Nonlinear fit was used to calculate IC50. […] Normalized to DMSO, data are representative of three independent experiments. • ^1Radiometric kinase assay from Eurofins. Performed in astrocytes with a Promega Lumit IL-6 kit.
METRIC_NAME: pIC50
Keep it numeric: pIC50 is minus log10 of the concentration in mol/L.

Completed entries (count: 9):
In [3]: df
Out[3]:
                                   compound                   experimental_system  metric_name  number
0  COc1cc(-c2cc(=O)c3cc(Br)cc(Br)c3o2)ncc1O [JKT.77A]  CK2A1 (Homo sapiens, UniProt P68400)        pIC50    7.68
1  O=c1cc(-c2ccc(O)c(Br)c2)oc2c(Br)cc(Br)cc12 [JKT.464A]  CK2A1 (Homo sapiens, UniProt P68400)        pIC50    7.72
2  COc1nc(-c2cc(=O)c3cc(Br)cc(Br)c3o2)ccc1O [JKT.606A]  CK2A1 (Homo sapiens, UniProt P68400)        pIC50    8.05
3  COc1nc(-c2cc(=O)c3cc(Cl)cc(Br)c3o2)ccc1O [JKT.669A]  CK2A1 (Homo sapiens, UniProt P68400)        pIC50    8.15
4  O=c1cc(-c2ccc(O)c(C(F)(F)F)c2)oc2c(Br)cc(Br)cc12 [JKT.460A]  CK2A1 (Homo sapiens, UniProt P68400)        pIC50    6.22
5  COc1cc(-c2cc(=O)c3cc(Br)c(OC)c(Br)c3o2)ccc1O [JKT.706A]  CK2A1 (Homo sapiens, UniProt P68400)        pIC50    6.61
6  O=c1cc(-c2cc(Cl)c(O)c(Cl)c2)oc2c(Br)cc(Br)cc12 [JKT.465A]  CK2A1 (Homo sapiens, UniProt P68400)        pIC50    6.87
7  O=c1cc(-c2cc(F)c(O)c(F)c2)oc2c(Br)cc(Br)cc12 [JKT.461B]  CK2A1 (Homo sapiens, UniProt P68400)        pIC50    7.12
8  COc1nc(-c2cc(=O)c3cc(Cl)cc(Cl)c3o2)ccc1O [JKT.678A]  CK2A1 (Homo sapiens, UniProt P68400)        pIC50    7.77

Moving on to the next compound.
The compound identified as COc1nc(-c2cc(=O)c3cccc(Br)c3o2)ccc1O [JKT.666A] registered its pIC50 at 8.30

* * *

- EXPERIMENTAL_SYSTEM: CK2A2 (Homo sapiens)
- Construct: purchased Eurofins
- ASSAY_METHOD_TEXT: Radiometric kinase assay (Eurofins), CK2A2
- Format: biochemical
- TEST_SETTINGS: Table 8; quinazolinones; read-out: CK2A2 RAD IC50
METRIC_NAME: pIC50
pIC50 here is simply -log10 of the concentration when that concentration is written in mol/L.

Below: 8 compounds and their reported pIC50.
>>> print(df.to_string())
                                   compound   experimental_system  metric_name  number
0  O=c1[nH]c(-c2cc(Cl)c(O)c(Cl)c2)nc2c(Br)cc(Br)cc12 [JKT.773B]  CK2A2 (Homo sapiens)        pIC50    6.56
1  O=c1[nH]c(-c2ccc(O)c(Cl)c2)nc2c(Br)cc(Br)cc12 [JKT.772A]  CK2A2 (Homo sapiens)        pIC50    7.14
2  COc1nc(-c2nc3c(Br)cc(Br)cc3c(=O)[nH]2)ccc1O [JKT.968C]  CK2A2 (Homo sapiens)        pIC50    7.48
3  O=c1[nH]c(-c2ccc(O)c(Cl)c2)nc2c(Br)cccc12 [JKT.828A]  CK2A2 (Homo sapiens)        pIC50    5.85
4  COc1nc(-c2nc3c(Br)cccc3c(=O)[nH]2)ccc1O [JKT.975A]  CK2A2 (Homo sapiens)        pIC50    7.48
5  O=c1[nH]c(-c2ccc(O)c(Br)c2)nc2c(Br)cc(Br)cc12 [JKT.734C]  CK2A2 (Homo sapiens)        pIC50    7.38
6  O=c1[nH]c(-c2ccc(O)c(Cl)n2)nc2c(Br)cc(Br)cc12 [JKT.956A]  CK2A2 (Homo sapiens)        pIC50    6.98
7  O=c1[nH]c(-c2cc(F)c(O)c(F)c2)nc2c(Cl)cc(Cl)cc12 [JKT.808A]  CK2A2 (Homo sapiens)        pIC50    5.79

# evaluate next
Notebook: COc1cc(-c2nc3c(Br)cc(Br)cc3c(=O)[nH]2)ccc1O [JKT.737B] , pIC50 read as 5.55
